Compiled from multiple publications: pIC50 readings for Apoptosis regulator Bcl-2 (Homo sapiens, UniProt P10415).
pIC50: −log10 of the molar value.
Tag: Yes if measured pIC50 is not below 7, No if it is.

{"structure_as_smiles": "CNC(=O)c1c(-c2cccc(N3CCN(c4ccc(NS(=O)(=O)c5ccc(N[C@H](CCN(C)C)CSc6ccccc6)c([N+](=O)[O-])c5)cc4)CC3)c2)c(-c2ccc(Cl)cc2)cn1C", "assigned_label": "Yes"}
{"structure_as_smiles": "CC(C)NC1=C2C(=NC1=O)c1cccc3c(N4CCSCC4)ccc2c13", "assigned_label": "No"}
{"structure_as_smiles": "CC(C)c1cc(C(=O)c2ccccc2)c(O)c(O)c1O", "assigned_label": "No"}
{"structure_as_smiles": "O=C(Nc1ccccc1)c1cc(Cc2ccccc2)c(O)c(O)c1O", "assigned_label": "No"}
{"structure_as_smiles": "CCCCc1c(-c2ccc(C(=O)NS(=O)(=O)c3ccc4ccccc4c3)cc2C(=O)N2CCc3ccccc3C2)c(CO)nn1-c1ccc(Oc2ccc(Cl)cc2)cc1", "assigned_label": "Yes"}
{"structure_as_smiles": "CN(C)C(=O)COc1ccc(-c2ccc(Cl)cc2)c(CN2CCN(c3ccc(C(=O)NS(=O)(=O)c4ccc(N[C@H](CCN5CCOCC5)CSc5ccccc5)c(S(=O)(=O)C(F)(F)F)c4)cc3)CC2)c1", "assigned_label": "Yes"}
